Values from ChEMBL document CHEMBL1255541

Assay: Cmax in rat at 5 mg/kg, po
Type: ADME, organism-based
Parameters: dose 5 mg/kg, route oral
Conditions: in vivo
RECORDED METRIC: Cmax (ng/mL)
Dear colleague, please return just the value in ng/mL, with no unit written.

The molecule listed as `CC1=NN(c2ccc(C)c(C)c2)C(=O)/C1=C(/C)NNC(=O)N1CCc2cc(C(=O)O)ccc21` shows Cmax equal to 859

Entry `CC1=NN(c2ccc3c(c2)CCC3)C(=O)/C1=C(/C)NNC(=O)N1CCc2cc(C(=O)O)ccc21` , Cmax reported as 3550

---

Assignment: determine reported % activity vs 10 ng/ml TPO for the given molecules.
Target: Thrombopoietin receptor (Homo sapiens) (UniProt P40238)
Sequence (whole entry): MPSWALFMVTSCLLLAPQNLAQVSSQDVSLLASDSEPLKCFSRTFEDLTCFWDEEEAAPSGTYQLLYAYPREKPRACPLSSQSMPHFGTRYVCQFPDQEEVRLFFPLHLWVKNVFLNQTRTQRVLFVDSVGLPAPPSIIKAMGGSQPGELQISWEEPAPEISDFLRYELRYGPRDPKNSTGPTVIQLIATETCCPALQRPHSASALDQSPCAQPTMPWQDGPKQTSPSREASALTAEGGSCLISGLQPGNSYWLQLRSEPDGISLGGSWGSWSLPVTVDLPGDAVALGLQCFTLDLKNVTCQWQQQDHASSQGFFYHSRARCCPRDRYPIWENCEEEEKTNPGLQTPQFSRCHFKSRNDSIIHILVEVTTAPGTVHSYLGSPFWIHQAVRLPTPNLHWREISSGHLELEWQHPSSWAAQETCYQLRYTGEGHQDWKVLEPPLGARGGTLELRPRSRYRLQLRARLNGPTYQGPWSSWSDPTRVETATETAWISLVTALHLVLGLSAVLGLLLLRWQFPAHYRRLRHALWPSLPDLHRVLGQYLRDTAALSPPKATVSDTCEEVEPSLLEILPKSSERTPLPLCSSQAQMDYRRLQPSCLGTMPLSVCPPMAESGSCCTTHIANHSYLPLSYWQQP
Experiment: Agonist activity at human TPOR expressed in mouse BaF3 cells at 150 nM
State just the number; it will be interpreted in %.

# molecule `C/C(NNC(=S)N1CCc2cc(C(=O)O)ccc21)=C1/C(=O)N(c2ccc(C)cc2)c2ccccc21` ; its % activity vs 10 ng/ml TPO = 47.8

Memo: `C/C(NNC(=S)N1CCCc2cc(C(=O)O)ccc21)=C1/C(=O)N(c2ccc(C)c(C)c2)c2ccccc21` , reported % activity vs 10 ng/ml TPO: 30.9

Sure, the documented % activity vs 10 ng/ml TPO for `C/C(NNC(=S)N1CCc2cc(C(=O)O)ccc21)=C1/C(=O)N(c2ccc3c(c2)CCC3)c2ccccc21` is 14.3

---

Target: UniProtKB P40238
Sequence (whole entry): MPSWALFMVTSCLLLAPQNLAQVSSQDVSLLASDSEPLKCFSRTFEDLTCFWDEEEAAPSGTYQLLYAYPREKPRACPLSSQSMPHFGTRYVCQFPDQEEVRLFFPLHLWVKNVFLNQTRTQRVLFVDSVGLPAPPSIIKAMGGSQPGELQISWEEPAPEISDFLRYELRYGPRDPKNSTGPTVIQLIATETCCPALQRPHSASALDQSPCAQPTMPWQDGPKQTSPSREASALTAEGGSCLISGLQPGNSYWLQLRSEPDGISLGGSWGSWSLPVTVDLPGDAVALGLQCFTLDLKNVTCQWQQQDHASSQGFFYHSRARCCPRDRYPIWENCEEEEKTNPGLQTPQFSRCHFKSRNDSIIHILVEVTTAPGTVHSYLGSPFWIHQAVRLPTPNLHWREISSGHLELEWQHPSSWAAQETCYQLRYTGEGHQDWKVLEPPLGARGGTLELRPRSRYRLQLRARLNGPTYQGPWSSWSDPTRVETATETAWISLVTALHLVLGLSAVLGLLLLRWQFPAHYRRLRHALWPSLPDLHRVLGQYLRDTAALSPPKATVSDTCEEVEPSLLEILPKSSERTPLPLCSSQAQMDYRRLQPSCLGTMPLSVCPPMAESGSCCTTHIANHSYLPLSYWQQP
Assay: Agonist activity at human TPOR expressed in mouse BaF3 cells at 150 nM
RECORDED METRIC: % activity vs 10 ng/ml TPO (%)
Just the number in %, nothing appended.

% activity vs 10 ng/ml TPO for `C/C(NNC(=S)N1CCc2cc(C(=O)O)ccc21)=C1/C(=O)N(c2ccc3c(c2)CCC3)c2ccc(F)cc21` is 3.2

Sure, the documented % activity vs 10 ng/ml TPO for `C/C(NNC(=S)N1CCCc2cc(C(=O)O)ccc21)=C1/C(=O)N(c2ccc(C)cc2)c2ccccc21` is 47.3

Query `C/C(NNC(=S)N1CCc2cc(C(=O)O)ccc21)=C1/C(=O)N(c2ccc(C)c(C)c2)c2ccccc21` yields % activity vs 10 ng/ml TPO of 72.4

Form: compound = `C/C(NNC(=S)N1CCc2cc(C(=O)O)ccc21)=C1/C(=O)N(c2ccc(C)cc2)c2ccc(F)cc21` ; % activity vs 10 ng/ml TPO = 78.1
